Items are presented alongside their recorded composite z-score.
- ASSAY TARGET: Neurogenic locus notch homolog protein 2 (Homo sapiens) (UniProt Q04721)
- Sequence (Q04721 whole entry, looked up): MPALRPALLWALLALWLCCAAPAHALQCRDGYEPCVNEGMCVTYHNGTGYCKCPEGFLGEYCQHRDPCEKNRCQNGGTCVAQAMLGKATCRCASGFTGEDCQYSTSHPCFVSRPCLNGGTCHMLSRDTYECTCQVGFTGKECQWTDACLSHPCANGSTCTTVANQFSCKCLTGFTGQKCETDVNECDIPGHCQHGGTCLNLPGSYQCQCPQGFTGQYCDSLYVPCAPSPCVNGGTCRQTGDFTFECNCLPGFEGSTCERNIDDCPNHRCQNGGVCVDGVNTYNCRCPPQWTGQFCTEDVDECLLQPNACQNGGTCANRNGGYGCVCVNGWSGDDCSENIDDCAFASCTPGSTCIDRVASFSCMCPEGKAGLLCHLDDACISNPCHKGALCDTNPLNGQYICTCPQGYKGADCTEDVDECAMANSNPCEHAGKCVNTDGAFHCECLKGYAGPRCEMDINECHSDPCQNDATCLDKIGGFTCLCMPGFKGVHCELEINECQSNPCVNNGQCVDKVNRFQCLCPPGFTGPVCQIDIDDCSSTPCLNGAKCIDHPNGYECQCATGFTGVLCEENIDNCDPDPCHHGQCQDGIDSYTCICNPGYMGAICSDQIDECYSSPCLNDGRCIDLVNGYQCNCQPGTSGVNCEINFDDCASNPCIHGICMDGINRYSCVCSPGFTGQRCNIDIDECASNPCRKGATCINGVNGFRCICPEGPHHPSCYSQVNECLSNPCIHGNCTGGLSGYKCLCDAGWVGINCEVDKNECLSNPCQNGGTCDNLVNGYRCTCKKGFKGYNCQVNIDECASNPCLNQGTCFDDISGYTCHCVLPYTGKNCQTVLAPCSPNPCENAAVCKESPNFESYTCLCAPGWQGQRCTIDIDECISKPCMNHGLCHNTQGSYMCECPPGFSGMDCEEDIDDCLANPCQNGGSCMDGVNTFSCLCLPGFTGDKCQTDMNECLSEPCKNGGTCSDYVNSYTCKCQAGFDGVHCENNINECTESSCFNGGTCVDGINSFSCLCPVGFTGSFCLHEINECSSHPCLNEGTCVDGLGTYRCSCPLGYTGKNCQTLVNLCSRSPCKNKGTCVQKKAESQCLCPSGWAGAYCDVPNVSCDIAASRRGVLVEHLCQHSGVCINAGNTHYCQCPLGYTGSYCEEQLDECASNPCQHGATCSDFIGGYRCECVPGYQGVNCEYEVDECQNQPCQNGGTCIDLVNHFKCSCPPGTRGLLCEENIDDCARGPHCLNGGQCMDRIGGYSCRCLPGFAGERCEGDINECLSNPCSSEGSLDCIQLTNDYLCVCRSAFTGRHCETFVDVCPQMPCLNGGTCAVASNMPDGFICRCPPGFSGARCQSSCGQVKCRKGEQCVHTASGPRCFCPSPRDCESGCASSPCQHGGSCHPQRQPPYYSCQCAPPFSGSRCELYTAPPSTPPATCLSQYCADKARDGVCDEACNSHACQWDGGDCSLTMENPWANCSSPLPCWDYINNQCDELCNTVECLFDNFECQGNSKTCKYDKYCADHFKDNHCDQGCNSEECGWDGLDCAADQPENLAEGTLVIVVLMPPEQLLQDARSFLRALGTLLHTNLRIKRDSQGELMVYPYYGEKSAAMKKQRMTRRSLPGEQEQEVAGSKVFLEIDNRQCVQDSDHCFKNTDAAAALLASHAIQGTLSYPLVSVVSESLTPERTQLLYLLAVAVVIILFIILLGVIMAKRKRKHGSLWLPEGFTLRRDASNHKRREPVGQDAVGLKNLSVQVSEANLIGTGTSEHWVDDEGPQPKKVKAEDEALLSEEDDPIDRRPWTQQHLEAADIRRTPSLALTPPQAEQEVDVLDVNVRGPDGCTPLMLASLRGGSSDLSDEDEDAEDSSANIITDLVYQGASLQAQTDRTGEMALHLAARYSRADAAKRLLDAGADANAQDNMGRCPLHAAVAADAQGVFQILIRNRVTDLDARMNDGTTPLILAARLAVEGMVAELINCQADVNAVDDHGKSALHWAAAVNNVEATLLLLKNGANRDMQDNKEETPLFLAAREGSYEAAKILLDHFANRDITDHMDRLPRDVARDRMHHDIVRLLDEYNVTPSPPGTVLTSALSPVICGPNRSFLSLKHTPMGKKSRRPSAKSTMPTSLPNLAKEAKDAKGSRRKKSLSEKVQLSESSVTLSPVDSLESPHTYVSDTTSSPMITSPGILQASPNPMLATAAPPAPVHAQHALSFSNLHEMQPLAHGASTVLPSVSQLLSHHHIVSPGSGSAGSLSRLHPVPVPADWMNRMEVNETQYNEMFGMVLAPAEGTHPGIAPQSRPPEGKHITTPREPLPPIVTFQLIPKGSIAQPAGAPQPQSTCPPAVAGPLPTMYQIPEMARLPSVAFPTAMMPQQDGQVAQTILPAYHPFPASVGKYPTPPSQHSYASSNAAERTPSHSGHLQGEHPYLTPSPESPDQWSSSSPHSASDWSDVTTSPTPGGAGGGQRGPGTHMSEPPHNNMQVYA
- ASSAY: Notch2 binders on small-molecule microarrays, primary screen, biochemical, small-molecule microarray, 635 nm fluorescence, stem cell growth factors (AID 1073)
- CONDITION NOTES: Notch2 binding, higher = more signal
In your answer, state the number alone without any accompanying words.

Q: Dear colleague, I am looking for the recorded composite z-score of the following compound: Cc1cc2c(nc1C)CCCCN2CC(O)CN1CCCc2nc(-c3ccc(Br)cc3)ccc21 (stereo not drawn)
Result: 0.513

Q: I would be grateful if you could share the reported composite z-score for `CCN1C(=O)[C@H]2[C@H]3[C@H](O)[C@H](O)CC(=NOCC=C(C)CCC=C(C)C)[C@@H]3CC[C@H]2C1=O` .
Result: 0.2

Q: Given the entry `CCOC(=O)NN=C1C[C@@H](O)[C@@H](O)[C@@H]2[C@@H]3C(=O)N(CC)C(=O)[C@@H]3CC[C@H]12` , report its measured composite z-score.
Result: 0.384
